This section presents compounds with their documented CC50 values.
- ASSAY_EXPLANATION: Cytotoxicity in human MRC5 cells by neutral red uptake assay
- Type: cell-based
PROPERTY: CC50

• Cc1ccc2nc(SCc3cc([N+](=O)[O-])cc([N+](=O)[O-])c3)[nH]c(=O)c2c1 = > 64 µM
• O=c1[nH]c(SCc2cc([N+](=O)[O-])cc([N+](=O)[O-])c2)nc2ccccc12 = > 64 µM
• O=c1[nH]c(SCc2cc([N+](=O)[O-])cc([N+](=O)[O-])c2)nc2cccnc12 = > 64 µM
• O=c1[nH]c(SCc2cc([N+](=O)[O-])cc([N+](=O)[O-])c2)nc2cnccc12 = > 64 µM
• O=c1[nH]c(SCc2cc([N+](=O)[O-])cc([N+](=O)[O-])c2)nc2ccc(Br)cc12 = > 64 µM
• O=c1[nH]c(SCc2cc([N+](=O)[O-])cc([N+](=O)[O-])c2)nc2ccc(F)cc12 = > 64 µM
• N#Cc1c(-c2cccc(Br)c2)nc(SCc2cc([N+](=O)[O-])cc([N+](=O)[O-])c2)[nH]c1=O = > 64 µM
• O=c1[nH]c(SCc2cc([N+](=O)[O-])cc([N+](=O)[O-])c2)nc2ccc(Cl)cc12 = > 64 µM
• N#Cc1c(-c2cccc(Br)c2)nc(SCc2ccccc2)[nH]c1=O = > 36 µM
• O=c1[nH]c(SCc2ccc(-c3ccccc3)cc2)nc2ccccc12 = > 64 µM
• COc1cccc(CSc2nc3ccccc3c(=O)[nH]2)c1 = > 64 µM
• O=c1[nH]c(SCc2c([N+](=O)[O-])cccc2[N+](=O)[O-])nc2ccccc12 = > 64 µM
• COc1ccc(CSc2nc3ccccc3c(=O)[nH]2)cc1 = > 64 µM
• O=c1[nH]c(SCc2ccccc2Cl)nc2ccccc12 = > 65 µM
• O=c1[nH]c([S+]([O-])Cc2cc([N+](=O)[O-])cc([N+](=O)[O-])c2)nc2ccccc12 (centres undefined) = > 64 µM
• O=c1[nH]c(SCc2cc([N+](=O)[O-])cc(C(F)(F)F)c2)nc2ccccc12 = > 64 µM
• O=c1[nH]c(SCc2ccc([N+](=O)[O-])o2)nc2ccccc12 = 35 µM
• O=c1[nH]c(SCc2ccc(Cl)c(Cl)c2)nc2ccccc12 = > 64 µM
• O=c1[nH]c(SCc2cccc([N+](=O)[O-])c2)nc2ccccc12 = > 64 µM
